These entries and their values trace back to the Human Domainome abundance scans (Beltran et al. 2025).

B1: POU domain, class 2, transcription factor 3, residues 186 to 260; numbered along this chain, Q9UKI9 (parent)
chain: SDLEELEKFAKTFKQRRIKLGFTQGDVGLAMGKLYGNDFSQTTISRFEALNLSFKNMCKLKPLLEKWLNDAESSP

Variants of: B1
Experiment: abundance fitness (aPCA) (normalised: wild type 0, dead -1); higher = more abundant; growth selection in yeast, the domain comes from the species named
Details: Homo sapiens
# binning rule on abundance fitness: interval 1: < -0.2; interval 2: ≥ -0.2 and < -0.06; interval 3: ≥ -0.06

>  <mutation.notation>
F47N

>  <answer.label>
interval 1

$$$$
>  <mutation.notation>
M57W

>  <answer.label>
interval 1

$$$$
>  <mutation.notation>
K33R

>  <answer.label>
interval 3

$$$$
>  <mutation.notation>
M31C

>  <answer.label>
interval 1

$$$$
>  <mutation.notation>
I18C

>  <answer.label>
interval 2

$$$$
>  <mutation.notation>
L63N

>  <answer.label>
interval 3

$$$$
>  <mutation.notation>
A10G

>  <answer.label>
interval 2

$$$$
>  <mutation.notation>
F47D

>  <answer.label>
interval 1

$$$$
>  <mutation.notation>
P75F

>  <answer.label>
interval 2

$$$$
>  <mutation.notation>
E72S

>  <answer.label>
interval 2

$$$$
>  <mutation.notation>
F54K

>  <answer.label>
interval 3

$$$$
>  <mutation.notation>
L63S

>  <answer.label>
interval 3

$$$$
>  <mutation.notation>
D70Y

>  <answer.label>
interval 3

$$$$
>  <mutation.notation>
L64Q

>  <answer.label>
interval 1

$$$$
>  <mutation.notation>
F54A

>  <answer.label>
interval 3

$$$$
>  <mutation.notation>
L68R

>  <answer.label>
interval 1

$$$$
>  <mutation.notation>
S74V

>  <answer.label>
interval 3

$$$$
>  <mutation.notation>
S73R

>  <answer.label>
interval 2

$$$$
>  <mutation.notation>
K55E

>  <answer.label>
interval 3

$$$$
>  <mutation.notation>
A71I

>  <answer.label>
interval 2

$$$$
>  <mutation.notation>
A49F

>  <answer.label>
interval 1

$$$$
